# test_description: gradient 5% acetonitrile 3 min, to 50% in 2 min, to 85% in 15 min, held 3 min, 100 µL/min
# assay_conditions: column: Zorbax Extend-C18 2.1 x 50 mm; eluents: water / acetonitrile, 0.1% formic acid
Simple rule here: RP-LC retention time less than 800 s is condition met, otherwise condition not met.

Sample answers from the record:
molecule: O=C(COc1cccc2ccc(N3CCOCC3)nc12)NCC1CCCO1 (stereo not given)
group_label: condition met
--
molecule: CCn1cnc(S(=O)(=O)N2CCC(C(=O)N3CCN(c4ccccn4)CC3)CC2)c1
group_label: condition met
--
molecule: COc1ccc(N2C(=O)C(O)=C(S(=O)(=O)c3ccccc3)C2c2ccccc2)cc1 (stereo not given)
group_label: condition not met
--
molecule: Cc1nc(-c2cn(C(C)C)c3ncccc23)sc1C(=O)NCc1cccs1
group_label: condition not met

Now turn to the next molecule.
Q: Quick check: does CCNS(=O)(=O)c1cccnc1Nc1ccc(F)cc1 have RP-LC retention time under 800 s?
A: condition not met

====

# test_description: gradient 5% acetonitrile 3 min, to 50% in 2 min, to 85% in 15 min, held 3 min, 100 µL/min
# assay_conditions: column: Zorbax Extend-C18 2.1 x 50 mm; eluents: water / acetonitrile, 0.1% formic acid
observation_type: RP-LC retention time (s)
State the answer as a number, implicitly in s.

molecule: COc1cc(C)c(C)cc1S(=O)(=O)NCC1(CO)CC1
observation_type: RP-LC retention time
recorded_measurement: 704

molecule: CCCNC(=O)c1cnn2c3c(cnc12)CCCCCC3
observation_type: RP-LC retention time
recorded_measurement: 976

molecule: O=c1cccc2n1CC1CC2CN(Cc2nnc(-c3cccc(Br)c3)o2)C1 (centres undefined)
observation_type: RP-LC retention time
recorded_measurement: 803

molecule: O=C1[C@H]2CN(Cc3cc(Br)ccc3F)C[C@H]2C(=O)N1CCc1ccccc1
observation_type: RP-LC retention time
recorded_measurement: 1030

molecule: O=C(Cn1cccc(-c2nc(-c3ccc(Br)cc3)no2)c1=O)N1CCCc2ccccc21
observation_type: RP-LC retention time
recorded_measurement: 1070

molecule: CN1CCN(C(=O)C2CCN(S(=O)(=O)c3cc(C(=O)N4CCCCCC4)cs3)CC2)CC1
observation_type: RP-LC retention time
recorded_measurement: 619

Q: Look up RP-LC retention time for this molecule: Oc1ccc2c3c1O[C@H]1c4[nH]c5ccccc5c4C[C@@]4(O)C(C2)N(CC2CC2)CC[C@]314
A: 717

Q: Look up RP-LC retention time for this molecule: Cn1c(=O)c(=O)n(CC(=O)NCCc2ccco2)c2cccnc21
A: 646

Q: Look up RP-LC retention time for this molecule: O=S(=O)(c1cc(-c2nnc(C3CCCC3)o2)co1)N1CCN(C2CCCCC2)CC1
A: 715

====

# test_description: gradient 5% acetonitrile 3 min, to 50% in 2 min, to 85% in 15 min, held 3 min, 100 µL/min
# assay_conditions: column: Zorbax Extend-C18 2.1 x 50 mm; eluents: water / acetonitrile, 0.1% formic acid
observation_type: RP-LC retention time
Please make sure the unit comes right after the number.

Q: Look up RP-LC retention time for this compound: COC(=O)c1cnc2nc(C)ccc2c1Nc1cc(OC)cc(OC)c1
A: 735 s

====

# test_description: gradient 5% acetonitrile 3 min, to 50% in 2 min, to 85% in 15 min, held 3 min, 100 µL/min
# assay_conditions: column: Zorbax Extend-C18 2.1 x 50 mm; eluents: water / acetonitrile, 0.1% formic acid
observation_type: RP-LC retention time (s)
State the answer as a number, implicitly in s.

Q: Look up RP-LC retention time for this compound: COc1ccc(C)cc1NC(=O)Cn1nc2cc(C)nc(-c3ccc(F)cc3)n2c1=O
A: 912

Q: Look up RP-LC retention time for this compound: Cc1cc(C)cc(NC(=O)N2CCC(n3cnc4ccc(Cl)cc4c3=O)CC2)c1
A: 817

Q: Look up RP-LC retention time for this compound: CCOc1ccccc1NC(=O)CSc1nnc(-c2cccnc2)o1
A: 730

Q: Look up RP-LC retention time for this compound: COc1cc(C(=O)Nc2nc(-c3ccc(Cl)cc3)cs2)cc(OC)c1OC
A: 1120

Q: Look up RP-LC retention time for this compound: O=c1n(CCc2ccccc2)nc2c(S(=O)(=O)N3CCCCCC3)cccn12
A: 1000

====

Known RP-LC retention time of a selection of compounds
# test_description: gradient 5% acetonitrile 3 min, to 50% in 2 min, to 85% in 15 min, held 3 min, 100 µL/min
# assay_conditions: column: Zorbax Extend-C18 2.1 x 50 mm; eluents: water / acetonitrile, 0.1% formic acid
State the answer as a number, implicitly in s.

// worked examples, RP-LC retention time included
compound: CCOc1ccccc1CNC(=O)c1nnc(-c2ccc(S(=O)(=O)N(C)C)cc2)o1
recorded_measurement: 945

compound: CC(C)CNC(=O)C1Cn2cccc2C(=O)N1 (centres undefined)
recorded_measurement: 651

Q: Look up RP-LC retention time for this compound: COc1ccc(C(C)NC(=O)Cc2cn(C)c3ncccc23)cc1OC (centres undefined)
A: 640

Q: Look up RP-LC retention time for this compound: COc1ccc(S(=O)(=O)NCc2ccc3c(c2)CCN3C(=O)c2ccc(F)cc2)cc1
A: 927

Q: Look up RP-LC retention time for this compound: Cc1ccc(F)cc1NC(=O)c1cnc2c(c1)c(=O)n(C)c(=O)n2-c1ccccc1
A: 881

Q: Look up RP-LC retention time for this compound: CN1CCC2(CC1)CN(C(=O)Cn1c(=O)oc3ccccc31)Cc1ccccc1O2
A: 644

Q: Look up RP-LC retention time for this compound: O=S(=O)(c1ccc(Cl)c(-c2nnc(-c3ccccc3)o2)c1)N1CCCC1
A: 1040

Q: Look up RP-LC retention time for this compound: COc1cccc(N2CCN(S(=O)(=O)c3cccc(-c4nc(-c5ccccc5)no4)c3)CC2)c1
A: 1290

Q: Look up RP-LC retention time for this compound: O=C1NC2(CCN(C(=O)Nc3ccc4c(c3)OCO4)CC2)N=C1c1ccccc1
A: 746

====

# test_description: gradient 5% acetonitrile 3 min, to 50% in 2 min, to 85% in 15 min, held 3 min, 100 µL/min
# assay_conditions: column: Zorbax Extend-C18 2.1 x 50 mm; eluents: water / acetonitrile, 0.1% formic acid
Known RP-LC retention time of a selection of compounds
State the answer as a number, implicitly in s.

compound: CCCN1C(=O)CCc2cc(NC(=O)COc3ccc(F)cc3)ccc21
unit_of_measure: s
RP-LC retention time: 888
--
compound: O=C(NCc1ccc2c(c1)OCO2)C1CCN(c2cnc(N3CCSCC3)nc2)CC1
unit_of_measure: s
RP-LC retention time: 763

Q: Look up RP-LC retention time for this compound: O=C(COc1cccc2ccc(N3CCOCC3)nc12)Nc1ccc(OC(F)(F)F)cc1
A: 703

Q: Look up RP-LC retention time for this compound: Cc1ccc(CC(=O)N2CCC3(C2)C(=O)N(C)c2ccccc23)cc1 (stereo not given)
A: 850

Q: Look up RP-LC retention time for this compound: Cc1cc(N2CCCC2)nc(N2CCN(S(=O)(=O)c3ccc(Br)cc3)CC2)n1
A: 820

Q: Look up RP-LC retention time for this compound: COc1ccc(CNC(=O)CN2C(=O)C3CCCCN3c3ccc(C(=O)N(C)C)cc32)c(OC)c1 (stereo not given)
A: 756

Q: Look up RP-LC retention time for this compound: COc1ccc(NC(=O)N2CCCC2c2nc(-c3ccc(OC)cc3)no2)cc1 (stereo not given)
A: 876

Q: Look up RP-LC retention time for this compound: CCCN1CCn2cc(S(=O)(=O)Nc3ccc(C)cc3)cc2C1=O
A: 771

Q: Look up RP-LC retention time for this compound: CCOC(=O)c1c(S(=O)(=O)N2CCC(C(=O)Nc3ccc(C)c(C)c3)CC2)c(C)n(C)c1C
A: 841

====

# test_description: gradient 5% acetonitrile 3 min, to 50% in 2 min, to 85% in 15 min, held 3 min, 100 µL/min
# assay_conditions: column: Zorbax Extend-C18 2.1 x 50 mm; eluents: water / acetonitrile, 0.1% formic acid
Label Condition met for high-side RP-LC retention time (at or above 700 s) and Condition not met for low-side RP-LC retention time (below it).

molecule: CCN1C(=O)CC[C@]2(CNC(=O)c3ccc(OC)nc3)CCC[C@@H]12
group_label: Condition not met
--
molecule: C=CCN1C(=O)COc2ccc(-c3nc(NC(=O)C(C)C)sc3C)cc21
group_label: Condition met
--
molecule: COCC1(O)CCOC2(CCN(Cc3ccccc3C)CC2)C1 (centres undefined)
group_label: Condition not met
--
molecule: COc1ccc(-c2noc(Cc3nnc(-c4cccc(Br)c4)o3)n2)cc1
group_label: Condition met
--
molecule: CCn1cc(CC(=O)NC2CCN(Cc3ccccc3)CC2)c2cccnc21
group_label: Condition not met

Now turn to the next molecule.
Q: # bool: RP-LC retention time of O=C(CCC(=O)N1CC2CCCN2c2ccccc21)NCCN1CCOCC1 (centres undefined) >= 700 s
A: Condition not met

From: the METLIN SMRT retention time set (Domingo-Almenara et al. 2019)
